# TEST SYSTEM: recombinant human neprilysin (rhNeprilysin) (Homo sapiens)
# Construct: purchased R&D Systems, Inc
# RUN DESCRIPTION: neprilysin inhibition, fluorogenic enzymatic (FRET) assay
# Format: biochemical
# MEASUREMENT SETUP: pure substance, 37 °C
pIC50: −log10 of the molar value.

- SMILES: "CC(C)C[C@H](N)C(=O)N[C@@H](Cc1c[nH]c2ccccc12)C(=O)O"
  pIC50: 4.07

----------
# TEST SYSTEM: recombinant human neprilysin (rhNeprilysin) (Homo sapiens, UniProt P08473)
# Construct: purchased R&D Systems, Inc
# Sequence (P08473 whole entry): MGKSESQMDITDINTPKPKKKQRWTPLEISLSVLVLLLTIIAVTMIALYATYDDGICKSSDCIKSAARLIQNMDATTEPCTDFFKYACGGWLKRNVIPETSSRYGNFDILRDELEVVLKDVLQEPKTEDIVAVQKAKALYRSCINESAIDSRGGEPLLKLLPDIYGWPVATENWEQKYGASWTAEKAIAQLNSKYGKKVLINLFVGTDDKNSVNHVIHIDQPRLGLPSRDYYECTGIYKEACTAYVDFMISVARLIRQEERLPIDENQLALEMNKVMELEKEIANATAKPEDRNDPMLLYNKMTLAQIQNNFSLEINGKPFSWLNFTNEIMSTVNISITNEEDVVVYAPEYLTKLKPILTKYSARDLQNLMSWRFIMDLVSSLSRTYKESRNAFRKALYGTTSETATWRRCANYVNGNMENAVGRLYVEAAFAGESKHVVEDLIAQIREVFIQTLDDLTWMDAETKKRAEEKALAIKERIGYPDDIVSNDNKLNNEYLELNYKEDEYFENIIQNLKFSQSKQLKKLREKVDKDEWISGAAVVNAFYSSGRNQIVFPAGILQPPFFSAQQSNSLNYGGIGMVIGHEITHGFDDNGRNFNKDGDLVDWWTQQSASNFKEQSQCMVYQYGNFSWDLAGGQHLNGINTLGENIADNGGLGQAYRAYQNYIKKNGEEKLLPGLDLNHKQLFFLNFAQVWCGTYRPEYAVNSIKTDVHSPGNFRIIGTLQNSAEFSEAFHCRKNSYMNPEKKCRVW
# RUN DESCRIPTION: neprilysin inhibition, fluorogenic enzymatic (FRET) assay
# Assay type: biochemical
# MEASUREMENT SETUP: pure substance, dilutions in deionized water, 37 °C
# Protocol: All samples are assayed in triplicate.

- SMILES: "CC(C)C[C@H](N)C(=O)N[C@@H](Cc1c[nH]c2ccccc12)C(=O)O"
  UNITS SYMBOL: "µM"
  IC50: 84.8
